assayed system: Env of HIV-1 strain 251-18 (HIV-1)
assay text: cell-based or functional assay
reported property: neutralization IC50

Reference set (4 entries):
binder	neutralization IC50
8ANC3484 (antibody, V domains shown) VH: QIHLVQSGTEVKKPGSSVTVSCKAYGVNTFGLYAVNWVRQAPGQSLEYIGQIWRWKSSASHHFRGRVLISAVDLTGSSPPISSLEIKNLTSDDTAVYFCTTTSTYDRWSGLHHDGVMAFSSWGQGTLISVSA VL: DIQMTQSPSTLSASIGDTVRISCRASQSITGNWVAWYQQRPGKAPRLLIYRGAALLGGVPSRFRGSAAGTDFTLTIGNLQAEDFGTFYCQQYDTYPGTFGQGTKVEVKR	0.391 µg/mL
γ52κ11 (antibody, V domains shown) VH: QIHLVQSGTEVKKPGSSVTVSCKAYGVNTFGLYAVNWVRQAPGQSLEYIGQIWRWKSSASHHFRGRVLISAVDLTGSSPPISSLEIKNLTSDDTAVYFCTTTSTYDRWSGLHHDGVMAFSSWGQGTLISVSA VL: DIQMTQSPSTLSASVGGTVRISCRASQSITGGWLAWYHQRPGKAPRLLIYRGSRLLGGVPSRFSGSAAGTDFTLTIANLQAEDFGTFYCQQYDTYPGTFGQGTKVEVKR	0.647 µg/mL
γ59κ3 (antibody, V domains shown) VH: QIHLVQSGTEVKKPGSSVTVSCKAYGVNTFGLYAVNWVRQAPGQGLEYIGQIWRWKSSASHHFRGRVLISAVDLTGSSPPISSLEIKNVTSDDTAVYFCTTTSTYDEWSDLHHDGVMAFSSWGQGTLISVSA VL: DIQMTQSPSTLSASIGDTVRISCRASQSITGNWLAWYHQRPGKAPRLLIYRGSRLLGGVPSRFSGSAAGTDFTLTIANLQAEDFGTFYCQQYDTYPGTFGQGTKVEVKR	> 15 µg/mL
γ15κ11 (antibody, V domains shown) VH: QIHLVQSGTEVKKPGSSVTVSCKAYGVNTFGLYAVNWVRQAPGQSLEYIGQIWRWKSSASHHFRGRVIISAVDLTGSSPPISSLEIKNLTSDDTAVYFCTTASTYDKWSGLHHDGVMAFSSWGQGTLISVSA VL: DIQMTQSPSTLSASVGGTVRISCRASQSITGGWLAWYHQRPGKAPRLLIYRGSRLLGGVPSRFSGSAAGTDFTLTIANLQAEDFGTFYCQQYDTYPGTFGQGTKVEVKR	> 15 µg/mL

Query string: Recorded neutralization IC50 for γ4κ18 (antibody, V domains shown) VH: QIHLVQSGTEVKKPGSSVTVSCKAYGVNTFGLYAVNWVRQAPGQSLEYIGQIWRWKSSASHHFRGRVIISAVDLTGSSPPISPLEIKNLTSDDTAVYFCTTTSTSDRWSGLHHDGVMAFSSWGQGTLISVSA VL: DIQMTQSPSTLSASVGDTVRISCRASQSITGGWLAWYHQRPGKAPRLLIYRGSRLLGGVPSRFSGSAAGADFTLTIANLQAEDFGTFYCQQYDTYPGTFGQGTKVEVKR , please?
Result string: > 15 µg/mL
